- measured-target: human ether-à-go-go-related gene (hERG) potassium channel (human, UniProt Q12809);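 further: peak tail current of the secondary pulse compared with the same well before compound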
- Sequence (Q12809 whole entry, looked up): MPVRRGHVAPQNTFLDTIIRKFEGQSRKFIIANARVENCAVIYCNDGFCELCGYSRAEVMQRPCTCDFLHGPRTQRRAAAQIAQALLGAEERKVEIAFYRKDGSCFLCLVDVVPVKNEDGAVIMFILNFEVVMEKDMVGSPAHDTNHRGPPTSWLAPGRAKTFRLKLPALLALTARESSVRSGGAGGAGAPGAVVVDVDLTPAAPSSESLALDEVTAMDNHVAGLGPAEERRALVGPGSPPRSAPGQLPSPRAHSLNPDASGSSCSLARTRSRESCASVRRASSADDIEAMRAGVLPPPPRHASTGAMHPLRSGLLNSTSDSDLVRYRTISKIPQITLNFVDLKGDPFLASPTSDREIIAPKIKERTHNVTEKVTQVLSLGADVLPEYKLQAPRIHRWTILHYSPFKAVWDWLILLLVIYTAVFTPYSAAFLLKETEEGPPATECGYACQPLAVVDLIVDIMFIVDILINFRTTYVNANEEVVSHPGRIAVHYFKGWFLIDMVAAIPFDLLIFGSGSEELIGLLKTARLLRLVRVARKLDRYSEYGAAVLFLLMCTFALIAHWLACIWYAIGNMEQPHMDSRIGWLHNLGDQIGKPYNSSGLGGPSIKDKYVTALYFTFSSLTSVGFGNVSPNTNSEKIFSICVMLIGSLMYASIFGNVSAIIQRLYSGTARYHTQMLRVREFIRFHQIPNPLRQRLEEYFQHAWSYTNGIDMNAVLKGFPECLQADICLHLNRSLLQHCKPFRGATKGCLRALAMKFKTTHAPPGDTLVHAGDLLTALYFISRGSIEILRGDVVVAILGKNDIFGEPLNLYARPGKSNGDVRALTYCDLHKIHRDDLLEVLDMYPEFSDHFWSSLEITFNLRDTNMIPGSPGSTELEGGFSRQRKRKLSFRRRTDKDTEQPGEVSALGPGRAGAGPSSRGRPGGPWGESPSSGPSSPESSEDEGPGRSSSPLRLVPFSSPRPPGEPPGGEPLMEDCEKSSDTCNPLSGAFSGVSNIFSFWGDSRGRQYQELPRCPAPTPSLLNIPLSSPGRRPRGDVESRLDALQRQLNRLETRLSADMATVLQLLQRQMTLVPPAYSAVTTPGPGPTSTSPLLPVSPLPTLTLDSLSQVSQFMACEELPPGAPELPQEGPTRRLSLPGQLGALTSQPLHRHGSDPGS
- protocol-notes: primary screen, population patch clamp on CHO cells stably expressing hERG; higher = less effect of the substance
About 14,000 (4.5%) of roughly 310,000 compounds showed an effect of 50% or more. The effect is printed as a negative number. Many of the other results were omitted from the sample, so strong results are more common in it than they were.
The entries below come with measured hERG current change (%, negative = inhibition) at 10uM values attached.
Please give a number only; it is taken to be in %.

Query block: Reported hERG current change (%, negative = inhibition) at 10uM for human ether-à-go-go-related gene (hERG) potassium channel (human, UniProt Q12809), given COc1ccc(C(=O)N2CCCC(c3nc(-c4ccc(C)o4)no3)C2)cc1OC (stereo not shown) ?
Result block: -8.29

Query block: Reported hERG current change (%, negative = inhibition) at 10uM for human ether-à-go-go-related gene (hERG) potassium channel (human, UniProt Q12809), given COC(=O)CN(c1ccc(C)cc1)S(=O)(=O)c1ccc(F)cc1 ?
Result block: -19.9

Query block: Reported hERG current change (%, negative = inhibition) at 10uM for human ether-à-go-go-related gene (hERG) potassium channel (human, UniProt Q12809), given Cc1c(CC(=O)N2CCN(C(=O)C3COc4ccccc4O3)CC2)c(=O)oc2cc(O)ccc12 (stereo not shown) ?
Result block: -44.7

Query block: Reported hERG current change (%, negative = inhibition) at 10uM for human ether-à-go-go-related gene (hERG) potassium channel (human, UniProt Q12809), given Cc1ccc(-c2noc(C3CCCN(C(=O)c4cccc(Cl)c4)C3)n2)o1 (stereo not shown) ?
Result block: -43.4

Query block: Reported hERG current change (%, negative = inhibition) at 10uM for human ether-à-go-go-related gene (hERG) potassium channel (human, UniProt Q12809), given C=CCn1c(SCC(=O)Nc2cc(C)nn2-c2ccccc2)nnc1C1CCCCC1 ?
Result block: -14.1

New cases:
Query block: Reported hERG current change (%, negative = inhibition) at 10uM for human ether-à-go-go-related gene (hERG) potassium channel (human, UniProt Q12809), given COc1ccc(/C=N/n2cnc3c([nH]c4ccccc43)c2=O)cc1CO ?
Result block: 11.2

Query block: Reported hERG current change (%, negative = inhibition) at 10uM for human ether-à-go-go-related gene (hERG) potassium channel (human, UniProt Q12809), given Cc1cc(Cl)nc(-n2nc(C)cc2C)n1 ?
Result block: 2.6

Query block: Reported hERG current change (%, negative = inhibition) at 10uM for human ether-à-go-go-related gene (hERG) potassium channel (human, UniProt Q12809), given CCCN(CCC)CC(C)(C)NS(=O)(=O)c1ccc(Cl)cc1 ?
Result block: -17.1

Query block: Reported hERG current change (%, negative = inhibition) at 10uM for human ether-à-go-go-related gene (hERG) potassium channel (human, UniProt Q12809), given COc1ccc2c(c1)[nH]c1c(=O)n(/N=C/c3ccc(OC)c(CN4CCCC4)c3)cnc12 ?
Result block: -71.1

Query block: Reported hERG current change (%, negative = inhibition) at 10uM for human ether-à-go-go-related gene (hERG) potassium channel (human, UniProt Q12809), given Cc1c(CC(=O)N2CCN(C(=O)C3COc4ccccc4O3)CC2)c(=O)oc2cc(O)cc(O)c12 (stereo not shown) ?
Result block: 24.8

Query block: Reported hERG current change (%, negative = inhibition) at 10uM for human ether-à-go-go-related gene (hERG) potassium channel (human, UniProt Q12809), given CC(=O)Oc1ccc2c(C)c(CC(=O)N3CCN(C(=O)C4COc5ccccc5O4)CC3)c(=O)oc2c1C (stereo not shown) ?
Result block: -69.6

Query block: Reported hERG current change (%, negative = inhibition) at 10uM for human ether-à-go-go-related gene (hERG) potassium channel (human, UniProt Q12809), given O=S(=O)(Nc1cccc2c1CCCC2)c1ccc(Cl)cc1 ?
Result block: -9.87

Query block: Reported hERG current change (%, negative = inhibition) at 10uM for human ether-à-go-go-related gene (hERG) potassium channel (human, UniProt Q12809), given CC(=Nc1ccccc1N)c1c(O)n(C)c(=O)n(C)c1=O ?
Result block: 21

Query block: Reported hERG current change (%, negative = inhibition) at 10uM for human ether-à-go-go-related gene (hERG) potassium channel (human, UniProt Q12809), given CCC(C)(C)c1ccc(OCCCC[n+]2cccc(C)c2C)c(C(C)(C)CC)c1.[Br-] ?
Result block: -75.8

Query block: Reported hERG current change (%, negative = inhibition) at 10uM for human ether-à-go-go-related gene (hERG) potassium channel (human, UniProt Q12809), given O=C(C1COc2ccccc2O1)N1CCOCC1 (stereo not shown) ?
Result block: 10.5

Query block: Reported hERG current change (%, negative = inhibition) at 10uM for human ether-à-go-go-related gene (hERG) potassium channel (human, UniProt Q12809), given Cc1ccc(N2CC(NS(=O)(=O)c3cc(F)ccc3F)CC2=O)cc1C (stereo not shown) ?
Result block: -6.74

---

The entries below come with measured hERG current change (%, negative = inhibition) at 10uM values attached.
- measured-target: human ether-à-go-go-related gene (hERG) potassium channel (human);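 further: peak tail current of the secondary pulse compared with the same well before compound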
- protocol-notes: primary screen, population patch clamp on CHO cells stably expressing hERG; higher = less effect of the substance
Among all 310,000 compounds or so, about 14,000 (4.5%) showed an effect of 50% or more. Effects have a minus sign here. The entries come from a sample that favours strong results as a whole.
Please give a number only; it is taken to be in %.

Query block: Reported hERG current change (%, negative = inhibition) at 10uM for human ether-à-go-go-related gene (hERG) potassium channel (human), given O=C(N/C(=C/c1cccs1)C(=O)N1CCCCCC1)c1ccccc1 ?
Result block: -21

New cases:
Query block: Reported hERG current change (%, negative = inhibition) at 10uM for human ether-à-go-go-related gene (hERG) potassium channel (human), given Cc1ccc(C(=O)N/C(=C\c2cccs2)C(=O)NCC2CCCO2)cc1C (centres unmarked) ?
Result block: 6.35

Query block: Reported hERG current change (%, negative = inhibition) at 10uM for human ether-à-go-go-related gene (hERG) potassium channel (human), given Cc1ccc(N2C(=O)NC(=O)/C(=C\c3ccoc3)C2=O)cc1 ?
Result block: 22

Query block: Reported hERG current change (%, negative = inhibition) at 10uM for human ether-à-go-go-related gene (hERG) potassium channel (human), given COc1ccc([C@H]2CC(=O)C=C(c3cccc(OC)c3)C2)cc1 ?
Result block: -82.1

Query block: Reported hERG current change (%, negative = inhibition) at 10uM for human ether-à-go-go-related gene (hERG) potassium channel (human), given COc1cccc(C2=CC(=O)C[C@H](c3ccc(F)cc3)C2)c1 ?
Result block: -14.9

Query block: Reported hERG current change (%, negative = inhibition) at 10uM for human ether-à-go-go-related gene (hERG) potassium channel (human), given Cc1ccc(CS(=O)(=O)CCC(=O)NCCN2CCCCC2C)cc1 (centres unmarked) ?
Result block: -2.59

Query block: Reported hERG current change (%, negative = inhibition) at 10uM for human ether-à-go-go-related gene (hERG) potassium channel (human), given CC1CCC(C(C)C)C(OC(=O)Cn2c(-c3ccc(Br)cc3)[n+](C)c3ccccc32)C1.[Cl-] (centres unmarked) ?
Result block: -78.3

Query block: Reported hERG current change (%, negative = inhibition) at 10uM for human ether-à-go-go-related gene (hERG) potassium channel (human), given CC1CCC(C(C)C)C(OC(=O)Cn2c(-c3ccc(Cl)cc3)[n+](C)c3ccccc32)C1.[Cl-] (centres unmarked) ?
Result block: -82.9

Query block: Reported hERG current change (%, negative = inhibition) at 10uM for human ether-à-go-go-related gene (hERG) potassium channel (human), given Cc1cccc(C(=O)N2CCCC(Nc3ccc(C(C)C)cc3)C2)n1 (centres unmarked) ?
Result block: 0.95

---

- measured-target: human ether-à-go-go-related gene (hERG) potassium channel (human, UniProt Q12809);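 further: peak tail current of the secondary pulse compared with the same well before compound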
- protocol-notes: primary screen, population patch clamp on CHO cells stably expressing hERG; higher = less effect of the substance
The campaign covered roughly 310,000 compounds. About 14,000 (4.5%) showed an effect of 50% or more. Effects have a minus sign here. Shown is part of a subset that was picked to be rich in strong results.
Entry class follows hERG current change (%, negative = inhibition) at 10uM: group A: < -50%; group B: ≥ -50% and < -10%; group C: ≥ -10%

Solved entries:
Query block: Categorize the following entry: O=C(O)CCC(=O)N1N=C(c2ccco2)CC1c1ccco1 (stereo not drawn)
Result block: group A

Query block: Categorize the following entry: OC(COCc1cccs1)CN1CCN(c2ccccn2)CC1 (stereo not drawn)
Result block: group A

Query block: Categorize the following entry: CCOc1ccccc1N1CCN(CC(O)COCc2cccs2)CC1 (stereo not drawn)
Result block: group B

Query block: Categorize the following entry: Cc1ccc(NCc2nnc(SCC(=O)Nc3nnc(C)s3)n2C)cc1
Result block: group C

Query block: Categorize the following entry: CCOC(=O)c1ccc(-n2c(CN3CCC(C(N)=O)CC3)nc3ccc([N+](=O)[O-])cc3c2=O)cc1
Result block: group B

New cases:
Query block: Categorize the following entry: COc1ccccc1N1CCN(CC(O)COCc2cccs2)CC1.Cl (stereo not drawn)
Result block: group B

Query block: Categorize the following entry: CN(CC(=O)Nc1ccc(F)cc1)C(=O)COc1ncnc2ccccc12
Result block: group B

Query block: Categorize the following entry: CCOc1ncnc2c1sc1nc(C)cc(C)c12
Result block: group C

Query block: Categorize the following entry: CC(=O)N1N=C(c2ccc(Cl)cc2)CC1c1ccco1 (stereo not drawn)
Result block: group C

Query block: Categorize the following entry: Cc1cccc(N2CCN(CC(O)COCc3cccs3)CC2)c1C (stereo not drawn)
Result block: group A

Query block: Categorize the following entry: Cc1ccccc1C(=O)N1CCCC(N2CCN(Cc3ccc4c(c3)OCO4)CC2)C1 (stereo not drawn)
Result block: group B

Query block: Categorize the following entry: COC(=O)C1=C(C(=O)OC)SC2(S1)C(C(=O)OC)=C(C(=O)OC)SC1=C2c2cccc(C)c2NC1(C)C
Result block: group A
